Tested on: beta-arrestin 1 C-terminal peptide binding to AP2 beta2-adaptin appendage (human)
Experiment: inhibitors of beta-arrestin/AP2 binding, primary screen, biochemical, GPCR trafficking, flow cytometry (AID 504490);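 also: plate controls were DMSO wells for no effect and 5 µM unlabelled arrestin peptide for full effect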
Details: FITC-arrestin peptide / GST-AP2 beads, at 10 µM, hits give high values, AP2 beta2 appendage carries R879A mutation
Out of some 340,000 compounds screened, about 1,100 (0.32%) were called active. The full list was thinned out, with actives kept by preference.
TEST_READOUT: inhibition (%)
Please state the figure in %; there is no need to write the unit.

COMPOUND	inhibition / %
Cc1ccc(CNC(=O)C2CC(=O)N(C3CCCCCCC3)C2)cc1 (stereo not given)	93.8
Cc1cc(C)cc(Oc2nc3c(C)cccn3c(=O)c2/C=C(\C#N)C(=O)NC2CCS(=O)(=O)C2)c1 (stereo not given)	77.2
COc1ccc(CNCCCn2cnc3c(OCc4ccccc4)ncnc32)cc1	3.96
Cn1cnnc1Sc1ccc(CN2CCN(C3CCCC3)C(CCO)C2)o1 (stereo not given)	-10.1
CCC(C)NC(=O)c1nn(C)c(=O)c2ccccc12 (stereo not given)	-22

Query: Quick one: give measured inhibition for CC(C)(C)OC(=O)N1CCC(NC(=O)c2[nH]cnc2C(=O)N[C@@H](Cc2ccccc2)C(=O)OCc2ccccc2)CC1
Reply: 9.22

Query: Quick one: give measured inhibition for CC(=O)OC1CCC2C3CCC4=C(CC(F)C(=O)C4)C3CCC12C (stereo not given)
Reply: -26.5

Query: Quick one: give measured inhibition for Cc1cccc(NC(=S)NC(=O)c2ccc(Br)o2)c1
Reply: 61.8

###

System: beta-arrestin 1 C-terminal peptide binding to AP2 beta2-adaptin appendage (human)
Assay: inhibitors of beta-arrestin/AP2 binding, primary screen, biochemical, GPCR trafficking, flow cytometry (AID 504490)
Conditions: FITC-arrestin peptide / GST-AP2 beads, at 10 µM, AP2 beta2 appendage carries R879A mutation
Screen size: about 340,000 compounds; about 1,100 (0.32%) were called active.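 How the source made its calls: active means inhibition above a set limit, near 3 SD of compounds lacking own fluorescence (cut at about 54% in these data); inactive means the rest.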 The entries come from a sample that favours actives as a whole.
Thanks in advance; please answer with one of these: true for active, false for inactive

In [3]: df
Out[3]:
                                   molecule  label_value
0           O=C(OCc1nc2ccccc2[nH]1)C1CCCCC1        false
1  CCc1ccc(N(CC(=O)Nc2sc3c(c2C(=O)OC)CCCC3)S(C)(=O)=O)cc1        false
2  O=C(C1CCCO1)N1CCN(S(=O)(=O)c2ccc(Br)cc2)CC1 (stereo unspecified)         true
3  Cc1ccccc1NC(=O)CCNS(=O)(=O)c1ccc2[nH]c(=O)oc2c1        false
4  CN1CCN(S(=O)(=O)c2ccc(NC(=O)C3CCCO3)cc2)CC1 (stereo unspecified)        false
5  Brc1ccccc1C1N=C(c2ccccc2)NO1 (stereo unspecified)        false
6       COc1ccccc1CNC(=O)c1cc(=O)c2ccccc2o1        false
7  COc1ccc(C2NC(=O)c3ccccc3N2)cc1 (stereo unspecified)        false
8          Oc1ccc(C2Nc3cccc4cccc(c34)N2)cc1         true
9  CCCCNC(=O)C1CCCN(S(=O)(=O)c2ccc(S(=O)(=O)NCC(C)C)cc2)C1 (stereo unspecified)        false

Okay, now this molecule:
Query: Kindly provide the recorded test outcome for the following molecule: COc1ccc2c(CC(=O)N3CCc4cc(OC)c(OC)cc4C3)coc2c1
Reply: false

###

Tested on: beta-arrestin 1 C-terminal peptide binding to AP2 beta2-adaptin appendage (human)
Test: inhibitors of beta-arrestin/AP2 binding, primary screen, biochemical, GPCR trafficking, flow cytometry (AID 504490)
Conditions: FITC-arrestin peptide / GST-AP2 beads, at 10 µM, AP2 beta2 appendage carries R879A mutation
The whole screen tested about 340,000 compounds, of which about 1,100 (0.32%) were called active.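 Rule for the calls: active = inhibition above a set limit, near 3 SD of compounds lacking own fluorescence (cut at about 54% in these data); inactive = the rest.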 The full list was thinned out, with actives kept by preference.
Thanks in advance; please answer with one of these: true (1) = active, false (0) = inactive

Example results:
>>> df
                                   compound                         system_under_test  label_value
0                   S=C(Nc1cccnc1)Nc1ccccn1  beta-arrestin 1 C-terminal peptide binding to AP2 beta2-adaptin appendage (human)    false (0)
1  NS(=O)(=O)c1ccc2nc(NC(=O)C3=COCCO3)sc2c1  beta-arrestin 1 C-terminal peptide binding to AP2 beta2-adaptin appendage (human)     true (1)
2  CCOC(=O)N1CCN(C(=O)C(C)NC(=O)c2ccco2)CC1 (stereo unspecified)  beta-arrestin 1 C-terminal peptide binding to AP2 beta2-adaptin appendage (human)    false (0)

Query: Kindly provide the recorded test outcome for the following compound: CCOC(=O)N1CCN(C(=O)Cc2ccc(-n3c(=S)[nH]c4ccccc4c3=O)cc2)CC1
Reply: false (0)

Query: Kindly provide the recorded test outcome for the following compound: CC(Sc1ncnc2c1cnn2-c1ccccc1)C(=O)Nc1ccc(N2CCOCC2)cc1 (stereo unspecified)
Reply: false (0)

###

Tested on: beta-arrestin 1 C-terminal peptide binding to AP2 beta2-adaptin appendage (human)
Assay: inhibitors of beta-arrestin/AP2 binding, primary screen, biochemical, GPCR trafficking, flow cytometry (AID 504490);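 also: plate controls were DMSO wells for no effect and 5 µM unlabelled arrestin peptide for full effect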
Conditions: FITC-arrestin peptide / GST-AP2 beads, at 10 µM, AP2 beta2 appendage carries R879A mutation
Screen size: about 340,000 compounds; about 1,100 (0.32%) were called active.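 The calls were made as follows: active = inhibition above a set limit, near 3 SD of compounds lacking own fluorescence (cut at about 54% in these data); inactive = the rest.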 The sample holds actives, similar compounds and a random draw of the others, so the mix is not that of the screen.
Thanks in advance; please answer with one of these: active, inactive

Example results:
>>> df
                                   compound                         system_under_test  label_value
0  Cn1c(N)c(C(=O)COC(=O)c2cnc(Cl)c(Cl)c2)c(=O)n(C)c1=O  beta-arrestin 1 C-terminal peptide binding to AP2 beta2-adaptin appendage (human)     inactive
1  CN1CCN(c2ccc(NC(=O)c3cc(Cl)c4c(c3)OCCO4)cc2)CC1  beta-arrestin 1 C-terminal peptide binding to AP2 beta2-adaptin appendage (human)     inactive
2  CCOc1ccc(/C=C2\SC(=S)N(NC(=O)c3ccncc3)C2=O)cc1OC  beta-arrestin 1 C-terminal peptide binding to AP2 beta2-adaptin appendage (human)     inactive

Query: Kindly provide the recorded test outcome for the following compound: C/C(Cl)=C\Cn1c(Nc2cccc(C)c2)nc2c1c(=O)n(C)c(=O)n2C
Reply: inactive

Query: Kindly provide the recorded test outcome for the following compound: C=CC(=O)Nc1ccc(Nc2ccnc(Nc3ccc(N4CCN(C)CC4)cc3)n2)cc1
Reply: active

###

Tested on: beta-arrestin 1 C-terminal peptide binding to AP2 beta2-adaptin appendage (human)
Assay: inhibitors of beta-arrestin/AP2 binding, primary screen, biochemical, GPCR trafficking, flow cytometry (AID 504490);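 also: plate controls were DMSO wells for no effect and 5 µM unlabelled arrestin peptide for full effect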
Conditions: FITC-arrestin peptide / GST-AP2 beads, at 10 µM, hits give high values, AP2 beta2 appendage carries R879A mutation
Out of some 340,000 compounds screened, about 1,100 (0.32%) were called active. The full list was thinned out, with actives kept by preference.
As shown below, each of these compounds has a reported inhibition value.
Please state the figure in %; there is no need to write the unit.

// worked examples, inhibition included
>>> print(df.to_string())
                                   compound  units_label  observed_result
0  COC(=O)C1CC2=C(CC(C)(C)CC2=O)N(c2ccccc2)C1=O (centres undefined)            %             54.1
1  CCOc1ccccc1-c1cc(C(=O)N/N=C(\C)c2cccnc2)c2ccccc2n1            %            -0.49
2    O=c1[nH]n2c(-c3ccccc3)nc(O)c2c2ccccc12            %            -0.17
3  Cc1ccc(S(=O)(=O)N2CCCCC2)cc1NC(=O)CCNC(=O)c1ccccc1            %             2.03
4  O=C(NCc1ccco1)c1ccc(CS(=O)(=O)Cc2ccc(F)cc2)o1            %               97
5  CC(=O)NCCNC(=O)c1cc(-c2cccc3ccccc23)nc2ccccc12            %             60.3

Query: Look up and report inhibition, with beta-arrestin 1 C-terminal peptide binding to AP2 beta2-adaptin appendage (human) as system, for O=C(NC1=CC(=O)c2ccccc2C1=O)c1ccccc1
Reply: 19.2

Query: Look up and report inhibition, with beta-arrestin 1 C-terminal peptide binding to AP2 beta2-adaptin appendage (human) as system, for CCc1ccc(NC(=O)Nc2ccncc2)cc1
Reply: 0.23

###

System: beta-arrestin 1 C-terminal peptide binding to AP2 beta2-adaptin appendage (human)
Experiment: inhibitors of beta-arrestin/AP2 binding, primary screen, biochemical, GPCR trafficking, flow cytometry (AID 504490);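 also: plate controls were DMSO wells for no effect and 5 µM unlabelled arrestin peptide for full effect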
Conditions: FITC-arrestin peptide / GST-AP2 beads, at 10 µM, AP2 beta2 appendage carries R879A mutation
Hit rate of the full screen: of about 340,000 compounds, about 1,100 (0.32%) were called active.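 Rule for the calls: active = inhibition above a set limit, near 3 SD of compounds lacking own fluorescence (cut at about 54% in these data); inactive = the rest.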 The sample as a whole holds a higher share of actives than the screen did.
Thanks in advance; please answer with one of these: Y = active, N = inactive

Example results:
                                   compound  label_value
0  CCc1cccc(C)c1NC(=S)N(CCCN1CCN(C)CC1)Cc1cccs1            N
1       CN(C)c1ccc(NC(=O)c2ccncc2)c2ccccc12            Y

Query: Kindly provide the recorded test outcome for the following compound: c1ccc(CC2CCN(c3nc4ccccc4n4cnnc34)CC2)cc1
Reply: N

Query: Kindly provide the recorded test outcome for the following compound: Cc1c(C(=O)NNC(=O)c2ccncc2)oc2ccccc12
Reply: N

Query: Kindly provide the recorded test outcome for the following compound: CCc1cccc2c(C=C(C#N)C#N)cn(CC(=O)N3CCCCC3)c12
Reply: N

Query: Kindly provide the recorded test outcome for the following compound: CCOc1ccccc1OCC(=O)Nc1ccccc1C(=O)NC1CC1
Reply: N

Query: Kindly provide the recorded test outcome for the following compound: O=C(Nc1ccccc1N1CCOCC1)c1ccncc1
Reply: N

Query: Kindly provide the recorded test outcome for the following compound: Cc1cc(/C=C2\SC(=O)N(C)C2=O)c(C)n1-c1cccc(C(=O)O)c1
Reply: Y
